- Tested on: AR+LNCaP androgen-sensitive human prostate cancer cell line
- assay details: MTT cytotoxicity assay in presence of 1 nM DHT, 48 h incubation
- Assay type: cell-based
- condition context: IC50 PC-3 / IC50 LNCaP
- Description: The antitumor properties of pyrazolylmethylene-2-thioxoimidazolidin-4-one derivatives (3a–p) against androgen-sensitive (AR^+LNCaP; ATCC CRL-1740, Accession: CVCL_0395) and androgen-insensitive (AR^-PC-3; ATCC CRL-1435, Accession: CVCL_D5ZS) human prostate cancer cell lines in addition to normal human lung fibroblast cell line (Wi38, Accession: CVCL_2759) were evaluated by MTT assay. […] Absorbance at 550 nm was measured. […]
Measured Selectivity AR-/AR+, listed per entry.
measurement name: Selectivity AR-/AR+

In [3]: df
Out[3]:
                           molecular_string  result_number
0  O=C1NC(=S)NC1=Cc1cn(-c2ccc(F)cc2)nc1-c1ccc(Cl)cc1            2.6
1  O=C1NC(=S)NC1=Cc1cn(-c2ccc(F)cc2)nc1-c1ccc(C(F)(F)F)cc1            2.7
2  O=C1NC(=S)NC1=Cc1cn(-c2ccc(C(F)(F)F)cc2)nc1-c1ccc(F)cc1            1.4
3  O=C1NC(=S)NC1=Cc1cn(-c2ccc(C(F)(F)F)cc2)nc1-c1ccc(C(F)(F)F)cc1            2.7
4  O=C1NC(=S)NC1=Cc1cn(-c2ccc(F)cc2)nc1-c1ccc(Br)cc1            1.8
5  Cc1ccc(-c2nn(-c3ccc(F)cc3)cc2C=C2NC(=S)NC2=O)cc1            1.3

----------
- Test system: active human caspase-3 in AR+LNCaP cells
- assay details: Detection of active Caspase 3 in AR+LNCaP cell lysates (Invitrogen Elisa kit)
- Type: cell-based
- condition context: IC50 concentration, 1 nM DHT, AR+LNCaP lysate
Measured active Caspase 3 fold change compared to untreated cells, listed per entry.
measurement name: active Caspase 3 fold change compared to untreated cells (fold)

>>> df
                           molecular_string                                       tgt  result_number
0  O=C1NC(=S)NC1=Cc1cn(-c2ccc(F)cc2)nc1-c1ccc(C(F)(F)F)cc1  active human caspase-3 in AR+LNCaP cells            5.4
1  O=C1NC(=S)NC1=Cc1cn(-c2ccc(F)cc2)nc1-c1ccc(Br)cc1  active human caspase-3 in AR+LNCaP cells            4.2
2  O=C1NC(=S)NC1=Cc1cn(-c2ccc(C(F)(F)F)cc2)nc1-c1ccc(C(F)(F)F)cc1  active human caspase-3 in AR+LNCaP cells            4.4
3  O=C1NC(=S)NC1=Cc1cn(-c2ccc(C(F)(F)F)cc2)nc1-c1ccc(F)cc1  active human caspase-3 in AR+LNCaP cells            3.5
4  Cc1ccc(-c2nn(-c3ccc(F)cc3)cc2C=C2NC(=S)NC2=O)cc1  active human caspase-3 in AR+LNCaP cells            3.2
5  O=C1NC(=S)NC1=Cc1cn(-c2ccc(F)cc2)nc1-c1ccc(Cl)cc1  active human caspase-3 in AR+LNCaP cells            4.7
